molecular target: Adenosine receptor A2b (Homo sapiens); assay: Displacement of [3H]PSB603 from recombinant human adenosine A2b receptor expressed in HEK293 cells at 1 uM relative to control; type: cell-based
observable: inhibition (%)

For orientation, consider the following solved cases.
Cn1c(=O)c2c(nc3n2CCCCN3Cc2cccc(Br)c2)n(C)c1=O 41
Cn1c(=O)c2c(nc3n2CCN3Cc2cccc(Br)c2)n(C)c1=O 30
Cn1c(=O)c2c(nc3n2CCCCN3Cc2ccccc2Cl)n(C)c1=O 41

P = Cn1c(=O)c2c(nc3n2CCCCN3Cc2ccc(Cl)cc2)n(C)c1=O
Q = Cn1c(=O)c2c(nc3n2CCCCN3Cc2ccccc2F)n(C)c1=O
R = Cn1c(=O)c2c(nc3n2CCN3Cc2ccccc2Br)n(C)c1=O
S = Cn1c(=O)c2c(nc3n2CCN3Cc2ccc(F)c(Br)c2)n(C)c1=O
Sort these compounds on inhibition so the largest reading comes first. Reply: labels, ordered per the request.
Q, R, P, S
(Q: 40%, R: 21%, P: 13%, S: 2%)

Values compiled from ChEMBL document CHEMBL4480426.
